- Test system: Rattus norvegicus
- Method Description: Antidiabetic activity in Wistar albino rat assessed as reduction of fasting blood glucose level administered qd for 9 days by oral glucose tolerance test (RVb = 83.33 +/- 1.54 mg/dl)
- Format: functional
Quantity Kind: Activity (mg/dL)
Numbers only, in mg/dL.

For every listed record, write down its Activity.
1. Oc1ccc(-c2nnc(CSc3nc4ccccc4[nH]3)o2)cc1
2. c1cncc(-c2nnc(CSc3nc4ccccc4[nH]3)o2)c1
3. O=[N+]([O-])c1ccc(-c2nnc(CSc3nc4ccccc4[nH]3)o2)c(Cl)c1
4. Oc1cc(-c2nnc(CSc3nc4ccccc4[nH]3)o2)cc(O)c1O
5. Nc1ccc(-c2nnc(CSc3nc4ccccc4[nH]3)o2)cc1

80.83
81.34
77.17
73.33
80.85

###

- Test system: Nucleic Acid
- Method Description: Induction of Escherichia coli DNA cleavage at 25 mg after 2 hrs using ethidium bromide staining by agarose gel electrophoresis methos
- Format: nucleic-acid assay
The source made the active and inactive calls. The calls are words filed in the database; no cut-off is given here.
Quantity Kind: Activity

- Compound: "Oc1ccc(-c2nnc(CSc3nc4ccccc4[nH]3)o2)cc1"
  Quantity Kind: "Activity"
  Result: "inactive"
- Compound: "O=C(CSc1nc2ccccc2[nH]1)NN1C(=O)CSC1c1ccccc1O (centres undefined)"
  Quantity Kind: "Activity"
  Result: "Active"
- Compound: "c1ccc(-c2nnc(CSc3nc4ccccc4[nH]3)o2)cc1"
  Quantity Kind: "Activity"
  Result: "inactive"
- Compound: "O=C(CSc1nc2ccccc2[nH]1)NN1C(=O)CSC1c1ccc(O)cc1 (centres undefined)"
  Quantity Kind: "Activity"
  Result: "Active"

###

- Tested on: Rattus norvegicus
- Method Description: Antidiabetic activity in Wistar albino rat assessed as reduction of blood glucose level administered qd for 9 days measured after 30 mins last post dose by oral glucose tolerance test (RVb = 183.2 +/- 3.68 mg/dl)
- Assay type: functional
Quantity Kind: Activity (mg/dL)
Answers are plain numbers, in mg/dL.

Below, 5 compounds whose answers are already recorded.
- Compound: "Oc1cc(-c2nnc(CSc3nc4ccccc4[nH]3)o2)cc(O)c1O"
  Measurement Unit: "mg/dL"
  Activity: 174.2
- Compound: "Clc1ccc(-c2nnc(CSc3nc4ccccc4[nH]3)o2)cc1"
  Measurement Unit: "mg/dL"
  Activity: 173.2
- Compound: "COc1ccc(Cl)cc1C(=O)NCCc1ccc(S(=O)(=O)NC(=O)NC2CCCCC2)cc1 [GLYBURIDE]"
  Measurement Unit: "mg/dL"
  Activity: 176.8
- Compound: "c1ccc(-c2nnc(CSc3nc4ccccc4[nH]3)o2)cc1"
  Measurement Unit: "mg/dL"
  Activity: 180.2
- Compound: "O=[N+]([O-])c1ccc(-c2nnc(CSc3nc4ccccc4[nH]3)o2)c(Cl)c1"
  Measurement Unit: "mg/dL"
  Activity: 155.3

For every listed record, write down its Activity.
1. Oc1ccc(-c2nnc(CSc3nc4ccccc4[nH]3)o2)cc1
2. Nc1ccc(-c2nnc(CSc3nc4ccccc4[nH]3)o2)cc1
3. O=[N+]([O-])c1ccc(-c2nnc(CSc3nc4ccccc4[nH]3)o2)cc1
4. c1cncc(-c2nnc(CSc3nc4ccccc4[nH]3)o2)c1

167.5
155.5
154.5
181.8

###

- System: Rattus norvegicus
- Method Description: Antidiabetic activity in Wistar albino rat assessed as reduction of fasting blood glucose level administered qd for 9 days by oral glucose tolerance test (RVb = 83.33 +/- 1.54 mg/dl)
- Assay type: functional
Exercise: for every item that follows, state its recorded Activity.
Numbers only, in mg/dL.

Below, 2 compounds whose answers are already recorded.
- Smiles Text: "O=[N+]([O-])c1ccc(-c2nnc(CSc3nc4ccccc4[nH]3)o2)cc1"
  Activity [mg/dL]: 78.33
- Smiles Text: "Clc1ccc(-c2nnc(CSc3nc4ccccc4[nH]3)o2)cc1"
  Activity [mg/dL]: 74.83

Switching to the query record.
Give a short answer stating reported Activity for c1ccc(-c2nnc(CSc3nc4ccccc4[nH]3)o2)cc1 . 76.33
